Kindly supply the reported melting point values for the records listed here.

## Input For the molecule Cc1cccc(C)c1C(c1cccc2ccccc12)C(C#N)C(=O)OC(C)(C)C (stereo not drawn) , what melting point is on record?
## Output 124 to 128 °C

## Input Please look up its melting point: COc1ccccc1[C@H](c1cccc2ccccc12)[C@@](C)(C#N)C(=O)N1CCN(c2ccccc2F)CC1
## Output 145 to 148 °C

## Input // lookup melting point for COc1ccccc1[C@H](c1cccc2ccccc12)[C@@](C)(C#N)C(=O)N1CCN(c2ccccc2Cl)CC1
## Output 145 to 147 °C

## Input Data request, read-out melting point, for COc1ccccc1[C@H](c1cccc2ccccc12)[C@@](C)(C#N)C(=O)N1CCC(N2CCOCC2)CC1
## Output 209 to 210 °C

## Input Entry under review: COC(=O)[C@@](C#N)(Cc1ccc(Br)cc1)[C@H](c1ccccc1OC)c1cccc2ccccc12 (relative stereo) . Reported melting point?
## Output 218 to 219 °C

## Input Recorded melting point of COc1ccccc1[C@H](c1cccc2ccccc12)[C@@](C)(C#N)C(=O)N1CCN(CCN(C)C)CC1 , please.
## Output 84 to 85 °C

## Input Fill blank: measured melting point of the molecule COCCN1CCN(C(=O)C(C#N)(COC)C(c2ccccc2OC)c2cccc3ccccc23)CC1 (stereo not drawn) is ____.
## Output 156 to 158 °C

## Input Data request, read-out melting point, for COc1ccccc1[C@H](c1cccc2ccccc12)[C@@](C)(C#N)C(=O)N1CCN(c2cccc(Cl)c2)CC1
## Output 174 to 176 °C

## Input Tell me the measured melting point of COC(=O)[C@](C#N)(Cc1cccnc1)[C@@H](c1ccccc1OC)c1cccc2ccccc12 , please.
## Output 193 °C (dec.)

## Input Entry COc1ccccc1C1CCN(C(=O)[C@](C)(C#N)[C@H](c2ccccc2OC)c2cccc3ccccc23)CC1 : reported melting point = ?
## Output 135 to 140 °C

## Input May I ask what melting point has been recorded for COC(=O)C(C)(C#N)C(c1ccccc1OC)c1ccnc2ccccc12 (stereo not drawn) ?
## Output 192 to 193.9 °C

## Input melting point for COc1ccccc1[C@H](c1cccc2ccccc12)[C@@](C)(C#N)C(=O)N1CCN(CC(=O)N2CCCC2)CC1 ?
## Output 203 °C

## Input Bench note: what melting point did COC(=O)[C@@](C#N)(CCN(C)C)[C@H](c1ccccc1OC)c1cccc2ccccc12 (relative stereo) show?
## Output 142 to 144.5 °C

## Input // returns reported melting point for input COc1ccccc1[C@H](c1cccc2ccccc12)[C@@](C)(C#N)C(=O)N1CCC(c2cccc(C(F)(F)F)c2)C(O)C1 (stereo partly drawn)
## Output 259 °C

## Input Please report the recorded melting point for COc1ccccc1[C@H](c1cccc2ccccc12)[C@@](C)(C#N)C(=O)N1CCN(c2ncccn2)CC1 .
## Output 153 to 154 °C

---

Please provide measured melting point for the entries that follow.

## Input Could you tell me which melting point is on file for COC[C@](C#N)(C(=O)NCC(C)(C)C)[C@H](c1ccccc1OC)c1cccc2ccccc12 (relative stereo) [Example 181] ?
## Output 184.9 to 185.5 °C

## Input For COC[C@](C#N)(C(=O)N1CCN(c2cnccn2)CC1)[C@H](c1ccccc1OC)c1cccc2ccccc12 [Example 223] , what is its reported melting point?
## Output 149 °C

## Input For the compound COC(=O)[C@@](C#N)(Cc1cccnc1)[C@H](c1ccccc1OC)c1cccc2ccccc12 (relative stereo) [Example 145] , what melting point is on record?
## Output 160 to 164.4 °C

## Input Consider the compound C[C@@](C#N)(C(=O)O)[C@H](c1ccccc1C(F)(F)F)c1cccc2ccccc12 (racemic) and give its measured melting point.
## Output 220 °C (dec.)

## Input Requested read-out: melting point. Entry: COc1ccccc1[C@H](c1cccc2ccccc12)[C@@](C)(C#N)C(=O)N1CC=C(c2ccc(Cl)cc2)CC1
## Output 118 to 122 °C

## Input Given the compound COC[C@@](C#N)(C(=O)OC)[C@@H](c1ccccc1OC)c1cccc2ccccc12 [Example 151] , what is its reported melting point?
## Output 175.6 to 177.6 °C

## Input Fill blank: measured melting point of the compound COc1ccccc1[C@H](c1cccc2ccccc12)[C@@](C)(C#N)C(=O)N1CCC(=O)CC1 [Example 191] is ____.
## Output 209 to 210 °C

## Input // lookup melting point for COc1ccccc1[C@H](c1cccc2ccccc12)[C@@](C)(C#N)C(=O)N1CCC(c2c[nH]c3ccccc23)CC1 [Example 187]
## Output 267 to 268 °C

## Input Given the entry CC(C)(C)OC(=O)[C@@](C)(C#N)[C@H](c1ccccc1OC(F)(F)F)c1cccc2ccccc12 (racemic) , report its measured melting point.
## Output 150 to 153 °C

## Input What value of measured melting point is listed for COc1ccccc1[C@H](c1cccc2ccccc12)[C@@](C)(C#N)C(=O)N1CCC(n2c(=O)[nH]c3ccccc32)CC1 [Example 183] ?
## Output 197 to 200 °C

## Input // lookup melting point for COc1ccccc1[C@H](c1cccc2ccccc12)[C@@](C)(C#N)C(=O)N1CCN(c2cccc3c2CCC3)CC1
## Output 188 to 190 °C

## Input Could you share which melting point value was measured for COC(=O)[C@@](C#N)(Cc1ccccn1)[C@H](c1ccccc1OC)c1cccc2ccccc12 (relative stereo) [Example 143] ?
## Output 194.4 to 196.3 °C

## Input Recorded melting point of COc1ccccc1[C@H](c1cccc2ccccc12)[C@@](C)(C#N)C(=O)N1CCN(c2cccc(C(F)(F)F)c2)CC1 [Example 136] , please.
## Output 158 to 162 °C

## Input Returns the measured melting point for the input compound. Input: COc1ccccc1[C@H](c1cccc2ccccc12)[C@@](C)(C#N)C(=O)N1CCN(CCN2CCOCC2)CC1
## Output 102 to 103 °C

## Input # query: melting point of entry COc1ccccc1[C@H](c1cccc2ccccc12)[C@@](C)(C#N)C(=O)N1CCN(c2cccc(Br)c2)CC1 [Example 131]
## Output 180 to 182 °C
